System: SF-539 CNS
TEST_NAME: NCI tumour cell line growth inhibition, 48 h
Hi there, I'd appreciate the recorded TGI for every entry that follows.
Give bare numbers, in µM.

>>> quantitative_result("O=C1OC(C(O)CO)C(=O)C1=O (configuration not stated)")
5440
>>> quantitative_result("O=C(O)C1OC(n2cc(F)c(=O)[nH]c2=O)CC1O (configuration not stated)")
26.2

// each compound listed below needs its TGI
1. N#C/C(=C1C=C(Br)/C(=N\O)C=C\1Cl)c1cccc2ccccc12
2. CSc1ccc2c(cc1=O)[C@@H](NC(=O)c1ccc(N)cc1)CCc1cc(O)c(O)c(O)c1-2

4.52
27.6

###

Tested on: LOX IMVI melanoma
TEST_NAME: NCI tumour cell line growth inhibition, 48 h
QUANTITY_MEASURED: TGI

>>> result("COc1ccccc1/C=C1\\SC(=S)N(/C=C2\\C(=O)Oc3ccccc3C2=O)C1=O")
"> 100 µM"
>>> result("CCC[CH2][Sn]1([CH2]CCC)[O]CC(CN2CCCC2)[O]1 (stereo not given)")
"26.8 µM"
>>> result("O=C(NI1OC(=O)c2ccccc21)c1ccc(Cl)cc1")
"> 100 µM"
>>> result("COc1cc(C(C)O)c[n+](CCc2c[nH]c3ccccc23)c1 (stereo not given)")
"> 100 µM"

Now for the compound whose TGI we want.
What does the record list as TGI for N=C(N)c1ccc(C(NC(=O)CNS(=O)(=O)c2ccc3ccccc3c2)P(=O)(Oc2ccccc2)Oc2ccccc2)cc1 (stereo not given) ?
> 100 µM

###

Test system: SF-539 CNS
TEST_NAME: NCI tumour cell line growth inhibition, 48 h; in the data active means GI50 below about 0.43 µM; inactive means the rest
Response enum: true (1) (active), false (0) (inactive)

Entry CN1CCN(CCCOc2ccc3nc(Nc4ccc(Cl)c(C(F)(F)F)c4)ccc3c2)CC1 : call = ?
false (0)

Then this molecule: CN1C/C=C\CCOc2cccc(c2)-c2ccnc(n2)Nc2cccc(c2)C1
true (1)

Could you do the same for COc1ccccc1CNCCCN1C(=O)c2ccc3c4c(ccc(c24)C1=O)C(=O)N(CCCOCCCCOCCCN)C3=O , please?
false (0)

###

Test system: MCF7 breast
TEST_NAME: NCI tumour cell line growth inhibition, 48 h
For each of the molecules below, state its TGI.
One number for each entry, in µM.

>>> quantitative_result("O=C1CSC(c2cccc(Oc3ccccc3)c2)N1c1ccc(Cl)cc1 (centres undefined)")
38.5

With those in mind, consider the next molecule.
Need TGI of CN1c2ccc(Cl)cc2C(=O)NC1c1ccc([N+](=O)[O-])s1 (centres undefined) , thanks.
44.6

###

Would you mind telling me the reported TGI of each entry?
System: SF-268 CNS
TEST_NAME: NCI tumour cell line growth inhibition, 48 h
One number for each entry, in µM.

Below are worked cases with known answers.
>>> quantitative_result("CN1C/C=C\\CCOc2cccc(c2)-c2ccnc(n2)Nc2cccc(c2)C1")
0.548
>>> quantitative_result("COc1cccc(-c2ccc3c4c2O[C@H]2C(=O)CC[C@@]5(O)[C@@H](C3)N(CC3CC3)CC[C@]425)c1")
40.3
>>> quantitative_result("CCCCCCCC/C=C/CCCCCCCC(=O)OC[C@H]1O[C@@H](n2ccc(N)nc2=O)C(F)(F)[C@@H]1O")
19.7
>>> quantitative_result("O=C(Cc1ccccc1)NN1C(=O)C(Cl)C1c1cc(Br)ccc1O (centres undefined)")
50
>>> quantitative_result("CC1OC(OC2C(O[C@H]3CC[C@@]4(C)C(=CC[C@H]5[C@@H]6C[C@@H]7O[C@]8(CC[C@@H](CO)CO8)[C@@H](C)[C@@H]7[C@@]6(C)CC[C@@H]54)C3)OC(CO)C(O)C2OC2OC(CO)C(O)C(O)C2O)C(O)C(O)C1O (some centres undefined)")
3.54
>>> quantitative_result("CC(C)n1nc(-c2cc3cc(O)ccc3[nH]2)c2c(N)ncnc21")
4.78

Reported TGI for COC1=C(OC)C(=O)C(Cc2c(C)nc3sc(C)cn23)=C(C)C1=O : what is it?
35.7
